Biological target: T1, human IL-23 (human, UniProt Q9NPF7 20-189; P29460 23-328)
T1 construct: Bought recombinant heterodimeric cytokine (eBioscience 34-8239-85 for panning; R&D Systems for the splenocyte assay); also called hIL-23; hIL23
T1 sequence (looked up) 1: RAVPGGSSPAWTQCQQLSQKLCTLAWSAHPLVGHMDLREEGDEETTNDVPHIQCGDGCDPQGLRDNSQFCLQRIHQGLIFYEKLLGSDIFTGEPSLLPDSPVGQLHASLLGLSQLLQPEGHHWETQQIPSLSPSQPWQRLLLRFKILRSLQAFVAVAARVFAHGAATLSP
T1 sequence (looked up) 2: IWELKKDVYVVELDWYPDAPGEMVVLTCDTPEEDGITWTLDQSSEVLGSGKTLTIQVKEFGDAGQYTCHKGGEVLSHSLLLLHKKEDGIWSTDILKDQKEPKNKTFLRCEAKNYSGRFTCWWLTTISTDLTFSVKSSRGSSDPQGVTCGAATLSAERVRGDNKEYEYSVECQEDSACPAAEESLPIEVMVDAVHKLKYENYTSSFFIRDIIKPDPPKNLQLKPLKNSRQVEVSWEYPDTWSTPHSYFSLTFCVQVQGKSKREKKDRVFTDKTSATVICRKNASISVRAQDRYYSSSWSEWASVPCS
Assay: equilibrium ELISA, soluble polypeptide
Kd overview
observation-type: Kd (nM)

MAcons (designed binder, also called polypeptide 15) single chain Alphabody: MSIQQIQKEIAQIQEVIAAIQKWIYSMTGGSGGSGGGGSGGSGGMSIEEIQKQIAAIQCQIAAIQKQIYAMTGSGGGGSGMSIEEIQKQIAAIQDQIVAIYKQIMAMSG = 0.23
MB74 (designed binder) MSIQQIQKEIATIQEVIAGIQKYIYRMTGGSGGSGGGGSGGSGGMSIEEIQKQIAAIQCQIAAIQKQIYAMTGSGGGGSGMSIEEIQKQIAAIQGQILAIYKQIMAMAI = 0.35
MA9 (designed binder) MSIQQIQKEITTIQAVIAAIQKWIYTMTGGSGGSGGGGSGGSGGMSIEEIQKQIAAIQCQIAAIQKQIYAMTGSGGGGSGMSIEEIQKQIAAIQGQIIAIYKQIMAMKD = 0.17
MB43 (designed binder) MSIEEIQKEIKNIQEVIAAIQKYIYTMTGGSGGSGGMSIEEIQKQIAAIQCQIAAIQKQIYAMTGSGGGGSGGSGGGGSGMSIEEIPKQIAAIQDQIIAIYKQIMAMTR = 0.2

Reference for the values: patent US20150266925A1
